# TARGET_OR_SYSTEM: MAP4K4 (human) (UniProt O95819)
# Sequence (O95819 whole entry, looked up): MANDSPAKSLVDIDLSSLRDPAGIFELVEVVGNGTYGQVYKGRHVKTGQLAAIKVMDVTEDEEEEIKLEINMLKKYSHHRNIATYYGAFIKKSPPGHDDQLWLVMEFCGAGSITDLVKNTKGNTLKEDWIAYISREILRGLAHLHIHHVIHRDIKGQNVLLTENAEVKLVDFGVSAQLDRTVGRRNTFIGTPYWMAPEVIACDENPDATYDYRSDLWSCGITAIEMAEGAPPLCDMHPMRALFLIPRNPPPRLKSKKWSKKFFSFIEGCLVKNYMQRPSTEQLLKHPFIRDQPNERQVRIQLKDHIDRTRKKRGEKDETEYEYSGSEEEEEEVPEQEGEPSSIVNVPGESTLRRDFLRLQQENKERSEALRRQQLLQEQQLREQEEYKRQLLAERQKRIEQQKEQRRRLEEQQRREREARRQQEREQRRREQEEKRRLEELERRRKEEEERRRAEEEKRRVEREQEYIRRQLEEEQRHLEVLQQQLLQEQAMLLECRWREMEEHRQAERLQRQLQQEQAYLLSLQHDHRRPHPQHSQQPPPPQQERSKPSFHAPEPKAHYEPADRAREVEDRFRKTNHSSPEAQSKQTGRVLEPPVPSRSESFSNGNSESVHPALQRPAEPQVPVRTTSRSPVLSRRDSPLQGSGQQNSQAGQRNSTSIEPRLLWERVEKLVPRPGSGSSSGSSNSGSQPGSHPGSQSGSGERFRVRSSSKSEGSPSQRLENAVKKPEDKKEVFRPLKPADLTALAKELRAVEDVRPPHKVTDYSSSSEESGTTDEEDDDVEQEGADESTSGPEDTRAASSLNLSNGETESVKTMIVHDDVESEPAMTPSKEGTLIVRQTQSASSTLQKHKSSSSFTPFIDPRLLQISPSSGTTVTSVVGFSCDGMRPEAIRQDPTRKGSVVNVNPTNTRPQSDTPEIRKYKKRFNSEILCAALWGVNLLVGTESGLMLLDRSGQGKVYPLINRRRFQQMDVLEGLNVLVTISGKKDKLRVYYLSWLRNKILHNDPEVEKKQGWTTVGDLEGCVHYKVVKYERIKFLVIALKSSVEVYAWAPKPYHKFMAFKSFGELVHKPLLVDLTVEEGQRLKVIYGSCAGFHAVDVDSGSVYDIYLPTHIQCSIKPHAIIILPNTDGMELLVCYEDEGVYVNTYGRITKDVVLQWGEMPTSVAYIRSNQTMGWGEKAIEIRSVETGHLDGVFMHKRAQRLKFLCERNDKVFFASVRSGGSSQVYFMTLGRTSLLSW
# PROTOCOL_TEXT: KINOMEscan competition binding
# RUN_CONDITIONS: compound 1.0 µM
OUTCOME_MEASURE: kinase still bound, per cent of control (%)
Unit % implied. Number only.

See these solved cases before continuing.
Need kinase still bound, per cent of control, item CN(C)C/C=C/C(=O)Nc1cccc(C(=O)Nc2ccc(Nc3nccc(-c4cccnc4)n3)cc2)c1
40

GET /values?readout=kinase still bound, per cent of control&item= CN(C)C/C=C/C(=O)Nc1cccc(C(=O)Nc2ccc(Nc3nccc(-c4c(-c5ccccc5)nn5ccccc45)n3)cc2)c1
9.8

Return reported kinase still bound, per cent of control; argument: CN(C)C/C=C/C(=O)Nc1cccc(C(=O)Nc2ccc(Nc3nccc(/C(C#N)=C4\Nc5ccccc5S4)n3)cc2)c1
100

The record that follows has no kinase still bound, per cent of control shown yet.
I'd like to know its kinase still bound, per cent of control. The compound in question is Cc1cc(NC(=O)c2cccc(NC(=O)/C=C/CN(C)C)c2)ccc1Nc1nccc(-c2cccnc2)n1
92

###

# TARGET_OR_SYSTEM: UniProt Q9HC98
# Sequence (Q9HC98 whole entry, looked up): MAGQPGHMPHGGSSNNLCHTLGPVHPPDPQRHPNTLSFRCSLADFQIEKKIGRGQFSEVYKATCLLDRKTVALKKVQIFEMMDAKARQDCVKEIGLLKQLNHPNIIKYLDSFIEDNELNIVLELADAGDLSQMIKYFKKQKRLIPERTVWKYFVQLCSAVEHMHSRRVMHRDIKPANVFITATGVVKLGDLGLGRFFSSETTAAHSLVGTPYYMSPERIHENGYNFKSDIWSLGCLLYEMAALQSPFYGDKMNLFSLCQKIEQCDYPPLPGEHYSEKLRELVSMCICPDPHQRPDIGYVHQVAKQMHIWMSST
# PROTOCOL_TEXT: KINOMEscan competition binding
# RUN_CONDITIONS: compound 1.0 µM
OUTCOME_MEASURE: kinase still bound, per cent of control
A complete answer gives the number and then names the unit.

Return reported kinase still bound, per cent of control; argument: CN(C)C/C=C/C(=O)Nc1cccc(C(=O)Nc2ccc(Nc3nccc(-c4c(-c5ccccc5)nn5ccccc45)n3)cc2)c1
100%

Report kinase still bound, per cent of control for CN(C)C/C=C/C(=O)Nc1cccc(C(=O)Nc2ccc(Nc3nccc(-c4cccnc4)n3)cc2)c1 please.
17%

Looking for the measured kinase still bound, per cent of control of CN(C)C/C=C/C(=O)Nc1cccc(C(=O)Nc2ccc(Nc3nccc(/C(C#N)=C4\Nc5ccccc5S4)n3)cc2)c1 , can you help?
100%

Please look at the following compound next.
Look at this compound and give its reported kinase still bound, per cent of control. Cc1cc(NC(=O)c2cccc(NC(=O)/C=C/CN(C)C)c2)ccc1Nc1nccc(-c2cccnc2)n1
100%

###

# TARGET_OR_SYSTEM: TYK2 JH2 pseudokinase (human) (UniProt P29597)
# Sequence (P29597 whole entry, looked up): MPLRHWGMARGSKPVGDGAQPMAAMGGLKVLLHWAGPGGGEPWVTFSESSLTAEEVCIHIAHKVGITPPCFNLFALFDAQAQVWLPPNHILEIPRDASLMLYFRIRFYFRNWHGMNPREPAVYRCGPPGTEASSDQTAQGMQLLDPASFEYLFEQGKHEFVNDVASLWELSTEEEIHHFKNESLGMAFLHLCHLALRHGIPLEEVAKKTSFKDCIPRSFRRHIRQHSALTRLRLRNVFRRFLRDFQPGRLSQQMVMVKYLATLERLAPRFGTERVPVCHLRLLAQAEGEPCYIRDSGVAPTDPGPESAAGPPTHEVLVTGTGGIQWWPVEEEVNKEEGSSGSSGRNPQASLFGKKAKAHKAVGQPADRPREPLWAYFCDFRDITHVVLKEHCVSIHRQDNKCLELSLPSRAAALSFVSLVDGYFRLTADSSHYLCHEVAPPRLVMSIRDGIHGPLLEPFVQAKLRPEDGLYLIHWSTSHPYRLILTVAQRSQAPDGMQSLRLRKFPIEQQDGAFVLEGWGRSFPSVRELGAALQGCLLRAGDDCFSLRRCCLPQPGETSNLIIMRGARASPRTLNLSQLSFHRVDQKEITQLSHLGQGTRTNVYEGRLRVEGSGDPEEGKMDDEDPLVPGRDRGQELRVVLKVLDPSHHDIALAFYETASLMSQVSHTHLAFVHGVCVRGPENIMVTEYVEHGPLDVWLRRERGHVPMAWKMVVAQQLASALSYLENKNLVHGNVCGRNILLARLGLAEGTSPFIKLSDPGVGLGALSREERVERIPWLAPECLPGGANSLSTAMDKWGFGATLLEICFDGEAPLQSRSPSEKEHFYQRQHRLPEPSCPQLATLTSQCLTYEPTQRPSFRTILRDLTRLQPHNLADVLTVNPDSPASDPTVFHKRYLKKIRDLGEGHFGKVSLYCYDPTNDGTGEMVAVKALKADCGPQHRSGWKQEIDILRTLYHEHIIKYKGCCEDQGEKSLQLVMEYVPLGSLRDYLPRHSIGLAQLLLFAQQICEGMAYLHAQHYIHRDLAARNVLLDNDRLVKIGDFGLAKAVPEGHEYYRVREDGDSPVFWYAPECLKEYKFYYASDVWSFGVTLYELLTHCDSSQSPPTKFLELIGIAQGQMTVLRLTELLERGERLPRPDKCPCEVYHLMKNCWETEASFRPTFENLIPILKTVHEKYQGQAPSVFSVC
# PROTOCOL_TEXT: KINOMEscan competition binding
# RUN_CONDITIONS: compound 1.0 µM
OUTCOME_MEASURE: kinase still bound, per cent of control (%)
Quick note: give the figure in %, leave out the unit.

Use the examples below as a reference point.
What kinase still bound, per cent of control value was documented for this compound, CN(C)C/C=C/C(=O)Nc1cccc(C(=O)Nc2ccc(Nc3nccc(/C(C#N)=C4\Nc5ccccc5S4)n3)cc2)c1 ?
33

Record request: kinase still bound, per cent of control value, item Cc1cc(NC(=O)c2cccc(NC(=O)/C=C/CN(C)C)c2)ccc1Nc1nccc(-c2cccnc2)n1
80

Requested field: kinase still bound, per cent of control. Item: CN(C)C/C=C/C(=O)Nc1cccc(C(=O)Nc2ccc(Nc3nccc(-c4cccnc4)n3)cc2)c1
5.8

Next compound, please.
Param item = CN(C)C/C=C/C(=O)Nc1cccc(C(=O)Nc2ccc(Nc3nccc(-c4c(-c5ccccc5)nn5ccccc45)n3)cc2)c1 ; retrieve measured kinase still bound, per cent of control.
100

###

# Tested on: FLT3 (human), P36888 [K663Q]
# PROTOCOL_TEXT: KINOMEscan competition binding
# RUN_CONDITIONS: compound 1.0 µM
OUTCOME_MEASURE: kinase still bound, per cent of control (%)
# output: bare number, implied unit %

Worked examples follow.
Lab note: need kinase still bound, per cent of control for Cc1cc(NC(=O)c2cccc(NC(=O)/C=C/CN(C)C)c2)ccc1Nc1nccc(-c2cccnc2)n1 on FLT3 (human), P36888 [K663Q], anyone have it?
75

API: value(readout=kinase still bound, per cent of control, system=FLT3 (human), P36888 [K663Q]) for record CN(C)C/C=C/C(=O)Nc1cccc(C(=O)Nc2ccc(Nc3nccc(-c4c(-c5ccccc5)nn5ccccc45)n3)cc2)c1
12

What is its kinase still bound, per cent of control for FLT3 (human), P36888 [K663Q]? Entry: CN(C)C/C=C/C(=O)Nc1cccc(C(=O)Nc2ccc(Nc3nccc(-c4cccnc4)n3)cc2)c1
48

Next compound, kinase still bound, per cent of control to be filled in.
What reported kinase still bound, per cent of control corresponds to CN(C)C/C=C/C(=O)Nc1cccc(C(=O)Nc2ccc(Nc3nccc(/C(C#N)=C4\Nc5ccccc5S4)n3)cc2)c1 on FLT3 (human), P36888 [K663Q]?
37

###

# TARGET_OR_SYSTEM: GSK3B (human) (UniProt P49841)
# Sequence (P49841 whole entry, looked up): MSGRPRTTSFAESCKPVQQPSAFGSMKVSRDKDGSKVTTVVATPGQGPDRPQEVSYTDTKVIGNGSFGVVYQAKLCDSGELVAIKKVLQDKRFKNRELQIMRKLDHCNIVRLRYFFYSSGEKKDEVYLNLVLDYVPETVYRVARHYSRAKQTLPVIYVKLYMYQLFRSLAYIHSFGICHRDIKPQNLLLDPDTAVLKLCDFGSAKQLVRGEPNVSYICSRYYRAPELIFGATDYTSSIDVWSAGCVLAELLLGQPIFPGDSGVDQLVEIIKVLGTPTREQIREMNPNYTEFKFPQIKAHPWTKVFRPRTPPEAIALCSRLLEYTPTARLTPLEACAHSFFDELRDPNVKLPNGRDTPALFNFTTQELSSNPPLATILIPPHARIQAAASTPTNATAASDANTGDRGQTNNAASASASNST
# PROTOCOL_TEXT: KINOMEscan competition binding
# RUN_CONDITIONS: compound 1.0 µM
OUTCOME_MEASURE: kinase still bound, per cent of control (%)
Write it as a number; the unit % goes unstated.

What value of kinase still bound, per cent of control has been recorded for this entry: CN(C)C/C=C/C(=O)Nc1cccc(C(=O)Nc2ccc(Nc3nccc(-c4c(-c5ccccc5)nn5ccccc45)n3)cc2)c1
49

Reported kinase still bound, per cent of control, molecule CN(C)C/C=C/C(=O)Nc1cccc(C(=O)Nc2ccc(Nc3nccc(/C(C#N)=C4\Nc5ccccc5S4)n3)cc2)c1 : ____
93

If you can, please state the reported kinase still bound, per cent of control value of Cc1cc(NC(=O)c2cccc(NC(=O)/C=C/CN(C)C)c2)ccc1Nc1nccc(-c2cccnc2)n1 .
100

Continuing:
Form field: reported kinase still bound, per cent of control of CN(C)C/C=C/C(=O)Nc1cccc(C(=O)Nc2ccc(Nc3nccc(-c4cccnc4)n3)cc2)c1
78

###

Overview of recorded kinase still bound, per cent of control for various molecules
# TARGET_OR_SYSTEM: IKBKB (human) (UniProt O14920)
# Sequence (O14920 whole entry, looked up): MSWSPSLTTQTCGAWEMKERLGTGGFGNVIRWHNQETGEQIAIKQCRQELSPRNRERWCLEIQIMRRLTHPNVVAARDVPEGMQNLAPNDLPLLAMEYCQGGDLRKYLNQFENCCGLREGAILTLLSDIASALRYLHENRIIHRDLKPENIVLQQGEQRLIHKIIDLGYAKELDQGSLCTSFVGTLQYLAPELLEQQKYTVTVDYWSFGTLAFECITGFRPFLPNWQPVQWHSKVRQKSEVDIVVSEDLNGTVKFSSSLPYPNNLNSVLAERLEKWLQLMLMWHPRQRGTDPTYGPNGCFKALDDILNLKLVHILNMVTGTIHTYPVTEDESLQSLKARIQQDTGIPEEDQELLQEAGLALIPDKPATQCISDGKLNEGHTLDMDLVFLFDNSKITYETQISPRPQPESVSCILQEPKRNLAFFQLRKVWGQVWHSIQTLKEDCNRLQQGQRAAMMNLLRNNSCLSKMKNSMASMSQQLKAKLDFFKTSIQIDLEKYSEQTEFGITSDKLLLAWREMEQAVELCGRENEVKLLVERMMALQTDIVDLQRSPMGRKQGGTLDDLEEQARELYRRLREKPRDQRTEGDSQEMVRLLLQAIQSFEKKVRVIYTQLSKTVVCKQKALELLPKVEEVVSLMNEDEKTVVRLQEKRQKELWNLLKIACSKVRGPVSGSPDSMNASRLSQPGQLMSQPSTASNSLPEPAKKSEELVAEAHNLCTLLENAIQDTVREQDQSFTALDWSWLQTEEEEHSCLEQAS
# PROTOCOL_TEXT: KINOMEscan competition binding
# RUN_CONDITIONS: compound 1.0 µM
Kindly provide the numeric value in % only, without the unit symbol.

Below, 3 molecules whose answers are already recorded.
Look up kinase still bound, per cent of control: CN(C)C/C=C/C(=O)Nc1cccc(C(=O)Nc2ccc(Nc3nccc(-c4c(-c5ccccc5)nn5ccccc45)n3)cc2)c1
84

What value of measured kinase still bound, per cent of control is listed for CN(C)C/C=C/C(=O)Nc1cccc(C(=O)Nc2ccc(Nc3nccc(/C(C#N)=C4\Nc5ccccc5S4)n3)cc2)c1 ?
87

Fill blank: measured kinase still bound, per cent of control of the molecule CN(C)C/C=C/C(=O)Nc1cccc(C(=O)Nc2ccc(Nc3nccc(-c4cccnc4)n3)cc2)c1 is ____.
48

Now consider the entry below.
Reported kinase still bound, per cent of control, molecule Cc1cc(NC(=O)c2cccc(NC(=O)/C=C/CN(C)C)c2)ccc1Nc1nccc(-c2cccnc2)n1 : ____
99

###

# TARGET_OR_SYSTEM: DCLK1 (human)
# PROTOCOL_TEXT: KINOMEscan competition binding
# RUN_CONDITIONS: compound 1.0 µM
OUTCOME_MEASURE: kinase still bound, per cent of control
The reply must contain the numeric value and, after it, the unit.

Answered cases to consult:
Return reported kinase still bound, per cent of control; argument: CN(C)C/C=C/C(=O)Nc1cccc(C(=O)Nc2ccc(Nc3nccc(/C(C#N)=C4\Nc5ccccc5S4)n3)cc2)c1
100%

Requested read-out: kinase still bound, per cent of control. Entry: CN(C)C/C=C/C(=O)Nc1cccc(C(=O)Nc2ccc(Nc3nccc(-c4cccnc4)n3)cc2)c1
96%

Name the recorded kinase still bound, per cent of control for Cc1cc(NC(=O)c2cccc(NC(=O)/C=C/CN(C)C)c2)ccc1Nc1nccc(-c2cccnc2)n1 .
100%

Attention now turns to another entry.
Name the recorded kinase still bound, per cent of control for CN(C)C/C=C/C(=O)Nc1cccc(C(=O)Nc2ccc(Nc3nccc(-c4c(-c5ccccc5)nn5ccccc45)n3)cc2)c1 .
93%

###

# TARGET_OR_SYSTEM: UniProt:Q52WX2
# Sequence (Q52WX2 whole entry, looked up): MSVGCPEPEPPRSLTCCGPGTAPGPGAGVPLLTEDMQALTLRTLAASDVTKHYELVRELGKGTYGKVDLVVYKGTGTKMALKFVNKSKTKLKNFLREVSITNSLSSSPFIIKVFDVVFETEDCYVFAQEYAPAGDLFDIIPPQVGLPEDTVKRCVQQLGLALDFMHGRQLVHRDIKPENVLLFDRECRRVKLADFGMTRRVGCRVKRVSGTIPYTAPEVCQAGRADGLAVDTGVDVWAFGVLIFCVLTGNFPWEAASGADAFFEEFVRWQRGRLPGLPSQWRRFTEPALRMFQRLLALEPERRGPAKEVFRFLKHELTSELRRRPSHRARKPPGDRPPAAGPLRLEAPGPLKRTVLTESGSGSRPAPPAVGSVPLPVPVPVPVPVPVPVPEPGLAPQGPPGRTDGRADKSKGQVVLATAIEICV
# PROTOCOL_TEXT: KINOMEscan competition binding
# RUN_CONDITIONS: compound 1.0 µM
OUTCOME_MEASURE: kinase still bound, per cent of control (%)
Form entry: value (%) — number only.

Solved entries (count: 2):
Sample CN(C)C/C=C/C(=O)Nc1cccc(C(=O)Nc2ccc(Nc3nccc(-c4c(-c5ccccc5)nn5ccccc45)n3)cc2)c1 — what was its kinase still bound, per cent of control?
92

What does the record list as kinase still bound, per cent of control for Cc1cc(NC(=O)c2cccc(NC(=O)/C=C/CN(C)C)c2)ccc1Nc1nccc(-c2cccnc2)n1 ?
96

***
kinase still bound, per cent of control lookup needed for CN(C)C/C=C/C(=O)Nc1cccc(C(=O)Nc2ccc(Nc3nccc(/C(C#N)=C4\Nc5ccccc5S4)n3)cc2)c1 , thanks.
100

# get_value(readout='kinase still bound, per cent of control', item= CN(C)C/C=C/C(=O)Nc1cccc(C(=O)Nc2ccc(Nc3nccc(-c4cccnc4)n3)cc2)c1 )
66

Data provenance: the kinase profiling compilation of Christmann-Franck et al. (2016)
